- Experiment Notes: Solubility study in SGF, FeSSIF, FaSSIF and water
- Assay type: physicochemical
- Experimental Parameters: thermodynamic from solid; in SGF, FaSSIF, FeSSIF and water
Assay Metric: solubility

The reported solubility of the compound C[C@]1(c2nc3cccc(C(N)=O)c3[nH]2)CCCN1 [Form A] was > 10000 µg/mL
